Tested on: K562
Test: Cytotoxicity against human K562 cells by MTT assay
Format: functional
Details: read-out: LC50 (the source's name)
Reported CC50 values follow for various molecules

Query string: Give its CC50 value. Item: COC1C=C(CCC/C(C)=C\CC/C(C)=C\CC[C@@H](C)/C=C2\OC(=O)C(C)=C2O)C(OC)O1 (stereo partly specified)
Result string: 83 µg/mL

---

Below, each of the compounds is paired with its reported MIC value.
Tested on: Proteus vulgaris
Test: Antimicrobial activity against Proteus vulgaris ATCC 3851
Format: functional

Solved cases (5 shown):
| compound | endpoint.value |
| --- | --- |
| CC1=C(O)/C(=C/[C@H](C)CC/C=C(/C)CC/C=C(/C)CCCC2=CC(=O)OC2O)OC1=O (some centres not stated) | > 100 µg/mL |
| COC1C=C(CC/C=C(\C)CC/C=C(\C)CCC[C@@H](C)/C=C2\OC(=O)C(C)=C2O)C(OC)O1 (some centres not stated) | 100 µg/mL |
| COC(=O)C(C)(O)[C@](O)(C[C@H](C)CCC/C(C)=C/CC/C(C)=C/CCc1ccoc1)C(=O)OC (some centres not stated) | > 100 µg/mL |
| CC1=C(O)/C(=C/[C@H](C)CC/C=C(/C)CC/C=C(/C)CCCc2ccoc2)OC1=O | 6.25 µg/mL |
| CC1=C(O)/C(=C/[C@H](C)CCC/C(C)=C/CCC(C)(O)CCCc2ccoc2)OC1=O (some centres not stated) | > 100 µg/mL |

Query string: // lookup MIC for COC1C=C(CCC/C(C)=C\CC/C(C)=C\CC[C@@H](C)/C=C2\OC(=O)C(C)=C2O)C(OC)O1 (some centres not stated)
Result string: > 100 µg/mL

Query string: Any idea what MIC was measured for COC(=O)C(C)(O)[C@@](O)(C[C@H](C)CC/C=C(/C)CC/C=C(/C)CCCc1ccoc1)C(=O)OC (some centres not stated) ?
Result string: > 100 µg/mL

Query string: Any idea what MIC was measured for C/C(=C\CCc1ccoc1)CC/C=C(\C)CCC[C@@H](C)CC(=O)O ?
Result string: 50 µg/mL

Query string: Return reported MIC; argument: CC1=C(O)/C(=C/[C@H](C)CC/C=C(/C)CC/C=C(/C)CCCC2=CC(O)OC2=O)OC1=O (some centres not stated)
Result string: > 100 µg/mL

Query string: What MIC value was documented for this compound, CC1=C(O)/C(=C/[C@H](C)CCC/C(C)=C/CC/C(C)=C/CCc2ccoc2)OC1=O ?
Result string: 12.5 µg/mL

Query string: Item COC(=O)C(C)(O)[C@](O)(C[C@H](C)CC/C=C(/C)CC/C=C(/C)CCCc1ccoc1)C(=O)OC (some centres not stated) has what recorded MIC?
Result string: > 100 µg/mL

Query string: GET /values?readout=MIC&item= COC(=O)C(C)(O)[C@](O)(C[C@H](C)CCC/C(C)=C/CC/C(C)=C/CCC1=CCN(CC(=O)O)C1=O)C(=O)OC (some centres not stated)
Result string: > 100 µg/mL

Query string: What value of MIC has been recorded for this entry: C/C(=C/CC[C@@H](C)CC(=O)O)CC/C=C(/C)CCCC1=CC(=O)OC1=O
Result string: > 100 µg/mL

Query string: # lookup: MIC of COC(=O)C(C)(O)[C@](O)(C[C@H](C)CC/C=C(/C)CC/C=C(/C)CCCC1=CCN(CC(=O)O)C1=O)C(=O)OC (some centres not stated)
Result string: > 100 µg/mL

Query string: Looking for the measured MIC of C/C(=C/CC[C@@H](C)CC(=O)O)CC/C=C(/C)CCCc1ccoc1 , can you help?
Result string: 25 µg/mL

Query string: Query: MIC; subject: CC1(C)S[C@@H]2[C@H](NC(=O)[C@H](N)c3ccccc3)C(=O)N2[C@H]1C(=O)O [AMPICILLIN]
Result string: 3.12 µg/mL

Query string: Give its MIC value. Item: CC1=C(O)/C(=C/[C@H](C)CCC/C(C)=C/CC/C(C)=C/CCC2=CC(O)OC2=O)OC1=O (some centres not stated)
Result string: > 100 µg/mL

---

Parameter MIC: see the listing below.
System: Staphylococcus aureus
Test: Antimicrobial activity against methicillin-resistant Staphylococcus aureus ATCC 700788
Type: functional

Before answering, review these 7 worked examples.
| compound | endpoint.value |
| --- | --- |
| COC(=O)C(C)(O)[C@](O)(C[C@H](C)CC/C=C(/C)CC/C=C(/C)CCCC1=CCN(CC(=O)O)C1=O)C(=O)OC (stereo partly drawn) | > 100 µg/mL |
| COC(=O)C(C)(O)[C@](O)(C[C@H](C)CC/C=C(/C)CC/C=C(/C)CCCc1ccoc1)C(=O)OC (stereo partly drawn) | > 100 µg/mL |
| C/C(=C\CCc1ccoc1)CC/C=C(\C)CCC[C@@H](C)CC(=O)O | > 100 µg/mL |
| CC1=C(O)/C(=C/[C@H](C)CCC/C(C)=C/CC/C(C)=C/CCc2ccoc2)OC1=O | 50 µg/mL |
| Cc1onc(-c2ccccc2)c1C(=O)N[C@@H]1C(=O)N2[C@@H]1SC(C)(C)[C@@H]2C(=O)O | 25 µg/mL |
| COC(=O)C(C)(O)[C@@](O)(C[C@H](C)CC/C=C(/C)CC/C=C(/C)CCCc1ccoc1)C(=O)OC (stereo partly drawn) | > 100 µg/mL |
| CC1=C(O)/C(=C/[C@H](C)CC/C=C(/C)CC/C=C(/C)CCCC2=CC(=O)OC2O)OC1=O (stereo partly drawn) | > 100 µg/mL |

Now let's try a different one.
Query string: MIC for C/C(=C/CC[C@@H](C)CC(=O)O)CC/C=C(/C)CCCc1ccoc1 ?
Result string: 25 µg/mL

---

Test system: Micrococcus luteus
Experiment: Antimicrobial activity against Micrococcus luteus IFC12708
Assay type: functional
Recorded MIC values for a group of molecules are listed next.

Some molecules with recorded MIC:
| molecule | MIC |
| --- | --- |
| COC1C=C(CC/C=C(\C)CC/C=C(\C)CCC[C@@H](C)/C=C2\OC(=O)C(C)=C2O)C(OC)O1 (some centres not stated) | 50 µg/mL |
| CC1=C(O)/C(=C/[C@H](C)CCC/C(C)=C/CCC(C)(O)CCCc2ccoc2)OC1=O (some centres not stated) | 100 µg/mL |
| C/C(=C\CCc1ccoc1)CC/C=C(\C)CCC[C@@H](C)CC(=O)O | 12.5 µg/mL |
| C/C(=C/CC[C@@H](C)CC(=O)O)CC/C=C(/C)CCCC1=CC(=O)OC1=O | 100 µg/mL |
| COC(=O)C(C)(O)[C@](O)(C[C@H](C)CC/C=C(/C)CC/C=C(/C)CCCc1ccoc1)C(=O)OC (some centres not stated) | > 100 µg/mL |
| COC(=O)C(C)(O)[C@](O)(C[C@H](C)CCC/C(C)=C/CC/C(C)=C/CCc1ccoc1)C(=O)OC (some centres not stated) | 100 µg/mL |
| COC(=O)C(C)(O)[C@](O)(C[C@H](C)CC/C=C(/C)CC/C=C(/C)CCCC1=CCN(CC(=O)O)C1=O)C(=O)OC (some centres not stated) | > 100 µg/mL |
| CC1(C)S[C@@H]2[C@H](NC(=O)[C@H](N)c3ccccc3)C(=O)N2[C@H]1C(=O)O | 12.5 µg/mL |

Query string: Quick one: MIC for CC1=C(O)/C(=C/[C@H](C)CC/C=C(/C)CC/C=C(/C)CCCC2=CC(O)OC2=O)OC1=O (some centres not stated) ?
Result string: 100 µg/mL

Query string: Requested field: MIC. Item: COC(=O)C(C)(O)[C@@](O)(C[C@H](C)CC/C=C(/C)CC/C=C(/C)CCCc1ccoc1)C(=O)OC (some centres not stated)
Result string: 50 µg/mL

Query string: # MIC lookup, item CC1=C(O)/C(=C/[C@H](C)CCC/C(C)=C/CC/C(C)=C/CCc2ccoc2)OC1=O
Result string: 12.5 µg/mL

---

System: Staphylococcus aureus
Experiment: Antimicrobial activity against methicillin-resistant Staphylococcus aureus ATCC 700787
Type: functional
Known MIC of a selection of compounds
Please give a number only; it is taken to be in µg/mL.

# annotated cases, reported MIC shown
| compound | endpoint.value |
| --- | --- |
| COC1C=C(CC/C=C(\C)CC/C=C(\C)CCC[C@@H](C)/C=C2\OC(=O)C(C)=C2O)C(OC)O1 (some centres undefined) | 50 |
| C/C(=C/CC[C@@H](C)CC(=O)O)CC/C=C(/C)CCCc1ccoc1 | 25 |

Query string: Reported MIC for CC1=C(O)/C(=C/[C@H](C)CC/C=C(/C)CC/C=C(/C)CCCc2ccoc2)OC1=O : what is it?
Result string: 6.25

Query string: So what does the record say about MIC for CC1=C(O)/C(=C/[C@H](C)CCC/C(C)=C/CC/C(C)=C/CCc2ccoc2)OC1=O ?
Result string: 50

Query string: Value lookup for MIC; key = C/C(=C\CCc1ccoc1)CC/C=C(\C)CCC[C@@H](C)CC(=O)O
Result string: 100

Query string: Report MIC for CC1=C(O)/C(=C/[C@H](C)CC/C=C(/C)CC/C=C(/C)CCCC2=CC(=O)OC2O)OC1=O (some centres undefined) please.
Result string: 100

Reference source for all entries: ChEMBL document CHEMBL1149882
